test system: KM12 colon; assay: NCI-60 one-dose screen, 48 h (100 = growth as untreated, 0 = no growth, -100 = all killed); conditions: 10 µM unless noted
About 83,000 compounds went through this panel and 20% of them were active in at least one assay; those are over-represented in the sample as a whole.

# compound, units_label, growth
rows = [
    ("Cc1ccc(-c2nc(N3CCNCC3)c3oc(-c4ccccc4)nc3n2)cc1", "%", -89.1),
    ("CC(=O)Cc1nsc(NC(=O)c2cc(-c3cc(Cl)cc(Cl)c3)oc2C)n1", "%", 103),
    ("CC(=O)OCc1nc(C#N)c(N(C)C)o1", "%", 110),
    ("Cc1cc(Cl)ccc1NC(=O)c1cc2ccccc2cc1O", "%", 7.04),
    ("Cc1ccc2c(n1)C(=O)c1[nH]c3ccccc3c1C2=O", "%", 37),
    ("CO/N=C(/C)c1ccc(NC(=O)CSc2nnc(-c3ccncc3)n2-c2ccccc2)cc1", "%", 61.9),
    ("CN(CCn1sc(=O)n(Cc2ccccc2)c1=O)Cc1ccc2c(Cl)cc(Cl)c(O)c2n1", "%", 37.1),
    ("O=C1c2cccnc2C(=O)c2c1c(C(=O)NCCCN1CCCCC1)c1ccccn21", "%", -17.8),
    ("COc1cc2c(c(OC)c1OC)-c1ccc(OC)c(=O)cc1[C@@H](NC(=O)CCl)CC2", "%", -10.3),
    ("COc1cc2c(c(OC)c1OC)CCC(c1cccc(C(=O)Nc3cccc(Br)c3)c1)O2 (stereo not given)", "%", 81.2),
]

* * *

Tested on: A498 renal
Experiment: NCI-60 one-dose screen, 48 h (100 = growth as untreated, 0 = no growth, -100 = all killed)
Conditions: 10 µM unless noted
Protocol: Growth inhibition of the A498 human tumor cell line is measured as a screen for anti-cancer activity. Cells are grown in 96 well plates and exposed to the test compound for 48 hours. Compounds are tested at a single concentration, which is 10^-5 M for most compounds. The reported endpoint is percent growth (GI% or GIPRCNT), where numbers from 0 - 100% represent growth inhibition, and numbers from -100% - 0 represent cell death. For example, a value of 40 represents 60% growth inhibition. […]
The panel holds about 83,000 compounds, 20% with a hit somewhere; the sample as a whole holds those more often.
measure_name: growth (%)

# compound, reported_measurement
measured = [
    ("COc1ccc(C(c2cc(OC)c(OC)c(OC)c2)N2CCN(c3ccccc3)CC2)cc1 (stereo not given)", 89.2),
    ("Cc1ccc(-c2nc3nc(-c4ccccc4)nc(N4CCNCC4)c3o2)cc1", -88.7),
    ("O=C(Cn1cc(CN2C(=O)c3ccccc3S2(=O)=O)nn1)Nc1nc2ccccc2s1", 108),
    ("CC1=C(C(=O)OC(C)C)C(c2ccc3c(c2)OCO3)NC(=S)N1 (stereo not given)", 109),
    ("O=C(COc1ccc(-c2nc3ccccc3[nH]2)cc1)N=Nc1c(O)[nH]c2ccc(Cl)cc12", 89.8),
]

* * *

system: A549/ATCC NSCLC; experiment: NCI-60 one-dose screen, 48 h; conditions: 10 µM unless noted
Compounds without any hit were thinned out: in the full panel of roughly 83,000, 20% have a hit. Active and inactive are the calls of the source. How the source made its calls: active means growth percent below 10; inactive means the rest.
Possible outcomes: Yes = active, No = inactive

# structure_as_smiles, assay_system, class_label
rows = [
    ("O=[N+]([O-])c1ccc(N/N=C(/C(=N/Nc2ccc([N+](=O)[O-])cc2)c2ccccc2)c2ccccc2)cc1", "A549/ATCC NSCLC", "No"),
    ("COc1cc(CNS(=O)(=O)c2ccc(C)cc2)ccc1OCc1cn(-c2ccc(Br)cc2)nn1", "A549/ATCC NSCLC", "No"),
    ("CCOC(=O)C(=Cc1cccc(Br)c1)C(=O)OCC", "A549/ATCC NSCLC", "No"),
    ("COC(=O)c1c2c(c[n+]([O-])c1C)C(=O)C(NCc1ccccc1)=CC2=O", "A549/ATCC NSCLC", "Yes"),
    ("C[C@H](NC(=O)[C@@H](C)N)[C@H](Oc1ccc2c(cnn2-c2ccc(F)cc2)c1)c1ccc2c(c1)OCCO2", "A549/ATCC NSCLC", "No"),
    ("CC/C(=C(/c1ccc(Cl)cc1)c1ccc(OCCN2CCCC2)cc1)c1ccc(OC)cc1", "A549/ATCC NSCLC", "No"),
    ("COc1cc(/C=C\\c2cc(/C=C\\c3ccc(O)c(OC)c3)n(C(=O)COc3ccc(Cl)cc3Cl)n2)ccc1O", "A549/ATCC NSCLC", "No"),
    ("COc1ccc(-c2cn(-c3cc(OC)c(OC)c(OC)c3)c(=O)n2C(C)=O)cc1", "A549/ATCC NSCLC", "No"),
    ("Fc1ccc2[nH]cc(-c3nonc3-c3c[nH]c4ccc(Br)cc34)c2c1", "A549/ATCC NSCLC", "No"),
]
